Data origin, for the record: patent US9006454B2

- ASSAY_TARGET: UniProt Q02127
- Sequence (Q02127 whole entry): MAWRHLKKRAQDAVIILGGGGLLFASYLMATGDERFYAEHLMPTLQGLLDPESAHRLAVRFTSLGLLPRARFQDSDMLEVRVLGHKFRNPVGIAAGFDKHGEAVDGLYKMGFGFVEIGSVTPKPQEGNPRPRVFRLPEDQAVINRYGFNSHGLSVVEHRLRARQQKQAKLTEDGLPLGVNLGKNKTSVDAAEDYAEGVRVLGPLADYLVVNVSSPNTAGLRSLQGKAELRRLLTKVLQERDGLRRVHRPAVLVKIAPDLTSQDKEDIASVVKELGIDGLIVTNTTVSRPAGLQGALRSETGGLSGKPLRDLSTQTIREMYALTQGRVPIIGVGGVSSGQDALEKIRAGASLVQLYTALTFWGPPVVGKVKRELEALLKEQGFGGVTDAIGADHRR
- METHOD_DESCRIPTION: DHODH activity assay (coupled enzyme assay, DCIP reduction, absorbance at 610 nm)
- Format: biochemical
- CONDITION_DESCRIPTION: compound at 10 uM; read-out: inh @ 10 uM hDHODH (%)
Lab note: compare inhibition at 10 µM against 50%. Equal or greater, write true (1). Smaller, write false (0).

Reference set, count: 8
COMPOUND	ANSWER_LABEL
O=C(O)c1cccn2nc(-c3ccc(-c4ccccc4)cc3)nc12 [I122]	true (1)
O=C(O)c1cccc2[nH]c(-c3ccc(-c4ccc(OCc5cccnc5)cc4)cc3)nc12 [I184]	true (1)
Cc1nc(-c2ccc(-c3nc4cccc(C(=O)O)c4[nH]3)cc2)oc1C [I66]	false (0)
O=C(O)c1cccc2[nH]c(-c3ccc(-c4ccc(OCc5ccccc5)cc4)cc3)nc12 [I190]	false (0)
Cc1cc(C(=O)O)c2nc(-c3ccc(-c4ccc(OCc5ccncc5)cc4)cc3)[nH]c2c1 [I114]	true (1)
COc1cc(-c2nc3c(C(=O)O)cccc3[nH]2)cc(OC)c1-c1ccccc1 [I20]	true (1)
Cc1cc(C(=O)O)c2nc(-c3ccc(-c4cccc(F)c4F)cc3)[nH]c2c1 [I52]	true (1)
Cc1cc(C(=O)O)c2nc(-c3ccc(-c4ccc(Oc5ccc(C#N)cc5)cc4)cc3)[nH]c2c1 [I178]	true (1)

For this compound, is measured inhibition at 10 µM 50% or higher? Cc1cc(C(=O)O)c2c(c1)nc(-c1c(F)c(F)c(-c3ccccc3)c(F)c1F)n2C [I123]
true (1)
